Target or system: Hexokinase-2 (Rattus norvegicus)
Sequence (P27881 whole entry): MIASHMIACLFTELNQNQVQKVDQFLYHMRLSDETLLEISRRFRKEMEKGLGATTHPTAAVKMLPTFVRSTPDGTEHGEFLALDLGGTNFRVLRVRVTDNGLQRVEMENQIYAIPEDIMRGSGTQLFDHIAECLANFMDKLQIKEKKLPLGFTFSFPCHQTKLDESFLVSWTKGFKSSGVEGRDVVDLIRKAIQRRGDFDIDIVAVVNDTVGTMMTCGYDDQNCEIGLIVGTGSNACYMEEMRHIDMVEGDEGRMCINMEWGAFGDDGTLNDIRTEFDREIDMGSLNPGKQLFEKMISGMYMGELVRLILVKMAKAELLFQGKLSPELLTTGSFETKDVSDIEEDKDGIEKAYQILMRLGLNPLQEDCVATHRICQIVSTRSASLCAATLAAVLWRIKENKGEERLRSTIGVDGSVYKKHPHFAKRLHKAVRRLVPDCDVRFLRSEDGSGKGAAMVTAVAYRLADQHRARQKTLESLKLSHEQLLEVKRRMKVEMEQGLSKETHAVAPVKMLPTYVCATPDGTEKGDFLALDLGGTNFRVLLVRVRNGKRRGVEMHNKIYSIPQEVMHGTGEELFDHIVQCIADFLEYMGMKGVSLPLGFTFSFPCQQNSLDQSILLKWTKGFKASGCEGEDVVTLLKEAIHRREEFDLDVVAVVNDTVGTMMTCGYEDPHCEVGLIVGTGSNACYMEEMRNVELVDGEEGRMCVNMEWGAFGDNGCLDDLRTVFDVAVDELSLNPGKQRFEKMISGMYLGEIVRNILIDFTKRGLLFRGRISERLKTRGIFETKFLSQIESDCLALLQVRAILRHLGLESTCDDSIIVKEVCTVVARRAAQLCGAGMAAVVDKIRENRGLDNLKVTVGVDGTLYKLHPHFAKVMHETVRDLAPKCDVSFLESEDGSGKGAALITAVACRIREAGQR
Test readout: Ki (µM)
Your answer is read as µM, so omit the unit and give the number.

Data point: Nc1ncnc2c1ncn2C1O[C@H](COP(=O)(O)OP(=O)(O)OP(=O)(O)OC[C@@H]2O[C@@H](O)[C@@H](O)[C@H](O)[C@H]2O)[C@@H](O)[C@H]1O (stereo partly specified) ; Ki = 2200
